Numbers sourced from PubChem BioAssay AID1529.

target: Mitogen-activated protein kinase kinase kinase 3 (Homo sapiens) (UniProt Q99759); experiment: modulators of MEKK3-MEK5 PB1 binding, primary screen, biochemical, wildtype MEKK3, multiplex bead flow cytometry, Alexa488-MEK5 (AID 1529); settings: bead-based flow cytometry, Alexa488-MEK5 binding to MEKK3; at 10 µM; actives lie on both sides; 0 = blocked by unlabeled MEK5, 100 = vehicle;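 note: Alexa488 bead fluorescence after subtracting the streptavidin-only scavenger bead signal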
Sequence (Q99759 whole entry, looked up): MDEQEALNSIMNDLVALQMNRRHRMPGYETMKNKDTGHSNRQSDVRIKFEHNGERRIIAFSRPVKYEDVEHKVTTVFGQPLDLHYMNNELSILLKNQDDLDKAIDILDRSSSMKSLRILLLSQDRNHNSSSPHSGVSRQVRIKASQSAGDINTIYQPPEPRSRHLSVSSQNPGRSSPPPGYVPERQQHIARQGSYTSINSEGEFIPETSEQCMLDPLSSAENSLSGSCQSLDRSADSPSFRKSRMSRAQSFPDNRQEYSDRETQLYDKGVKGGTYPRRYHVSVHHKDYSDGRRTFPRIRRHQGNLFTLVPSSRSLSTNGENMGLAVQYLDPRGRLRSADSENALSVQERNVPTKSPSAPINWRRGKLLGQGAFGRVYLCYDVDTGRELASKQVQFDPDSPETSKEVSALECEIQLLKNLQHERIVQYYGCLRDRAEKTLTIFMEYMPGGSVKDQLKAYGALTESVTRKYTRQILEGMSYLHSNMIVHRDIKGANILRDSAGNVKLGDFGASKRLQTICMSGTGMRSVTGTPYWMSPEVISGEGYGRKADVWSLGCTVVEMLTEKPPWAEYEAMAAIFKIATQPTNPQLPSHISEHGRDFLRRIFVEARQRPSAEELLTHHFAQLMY
Out of some 290,000 compounds screened, about 4,200 (1.4%) were called active. This is one part of a sample in which actives are shown more often than they occur.
readout: binding response (% of control)

Looking up O=C1Nc2ccc(Br)cc2/C1=N/N=C/C1=C(N2CCOCC2)C(=C\c2ccccc2)/CC1 , I see its binding response (% of control) listed as 45% [inhibitor] (active)

Looking up COC(=O)C1=NN(c2ccccc2)C2C(=O)N(c3ccccc3OC)C(=O)C12 (configuration not stated) , I see its binding response (% of control) listed as 139% (active)

Looking up C[N+](C)(C)CCNC(=O)c1c(O)c2c([nH]c1=O)CCCC2 , I see its binding response (% of control) listed as 78% [inhibitor] (active)

Looking up O=c1[nH]snc1-c1c(Cl)cccc1Cl , I see its binding response (% of control) listed as 105% (inactive)

Looking up CCCCc1nnc(NC(=O)CSc2nc(C)cc(=O)[nH]2)s1 , I see its binding response (% of control) listed as 98% (inactive)

Looking up C(=N\N1CCN(c2ccccn2)CC1)/C1=C(N2CCOCC2)C(=C/c2ccccc2)/CC1 , I see its binding response (% of control) listed as 102% (inactive)

Looking up Cc1c(CN2CC[C@@H](N3CCN(c4ccccn4)CC3)[C@H](O)C2)[nH]c2ccc(F)cc12 , I see its binding response (% of control) listed as 104% (inactive)

Looking up O=C(O)/C=C\C(=O)Nc1ccc(OCc2ccccc2)cc1 , I see its binding response (% of control) listed as 130% (active)

Looking up COc1ccc(NC(=O)NNC(=O)COc2cc(C)c(Cl)c(C)c2)c(OC)c1 , I see its binding response (% of control) listed as 105% (inactive)

Looking up O=C(NCc1ccccn1)c1c(O)c2c([nH]c1=O)CCCC2 , I see its binding response (% of control) listed as 107% (inactive)

Looking up CC(=O)N1CCN(CC(C)(C)NS(=O)(=O)c2ccc(C)cc2)CC1 , I see its binding response (% of control) listed as 102% (inactive)

Looking up COc1ccc(-c2[nH]ncc2CN(C)Cc2cccnc2)c(F)c1 , I see its binding response (% of control) listed as 108% (inactive)

Looking up Cc1ccc(S(=O)(=O)NCC(C)NS(C)(=O)=O)cc1 (configuration not stated) , I see its binding response (% of control) listed as 97% (inactive)

Looking up COc1cccc(OCC(=O)Nc2ccccc2C(N)=O)c1 , I see its binding response (% of control) listed as 110% (inactive)

Looking up CCc1nnc(NC(=O)c2c(O)c3c([nH]c2=O)CCCC3)s1 , I see its binding response (% of control) listed as 105% (inactive)

Looking up Cc1ccc(OCC(=O)NCCCNC(=O)c2cccnc2)cc1C , I see its binding response (% of control) listed as 99% (inactive)

Looking up Cc1nc(SCC(=O)NC2CCCC2)[nH]c(=O)c1C , I see its binding response (% of control) listed as 101% (inactive)

Looking up COC(=O)C1(C)NC(c2ccccc2OC)C2C(=O)N(c3ccccc3)C(=O)C21 (configuration not stated) , I see its binding response (% of control) listed as 104% (inactive)

Looking up CCOC(=O)Cc1csc(NC(=O)CSc2nc(C)cc(=O)[nH]2)n1 , I see its binding response (% of control) listed as 58% [inhibitor] (active)

Looking up COc1cccc(OCC(=O)NNC(=O)c2cnccn2)c1 , I see its binding response (% of control) listed as 2% [inhibitor] (active)

Looking up CCOC(=O)C(NS(=O)(=O)c1ccc(C)cc1)(C(F)(F)F)P(=O)(OCC(C)C)OCC(C)C (configuration not stated) , I see its binding response (% of control) listed as 140% (active)

Looking up COC(=O)c1cc(C(=O)OC)cc(N2C(=O)CC(N3CCN(c4ccccc4)CC3)C2=O)c1 (configuration not stated) , I see its binding response (% of control) listed as 103% (inactive)
